- TARGET OR TEST SYSTEM: T1, soluble human CD3 epsilon chain (human, UniProt P07766 23-126)
- T1 construct: also called CD3ε
- T1 sequence (P07766 23-126 limits assumed): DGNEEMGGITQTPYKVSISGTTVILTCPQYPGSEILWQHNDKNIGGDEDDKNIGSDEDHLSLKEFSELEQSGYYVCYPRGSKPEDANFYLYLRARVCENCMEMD
- TEST DETAILS: SPR
pKd: −log10 of the molar value.
TEST READOUT: pKd

1) TR01H082-E22Hh/none-Hi-Kn010G3/L0262-k0 (antibody, V domains shown, one-arm) VH: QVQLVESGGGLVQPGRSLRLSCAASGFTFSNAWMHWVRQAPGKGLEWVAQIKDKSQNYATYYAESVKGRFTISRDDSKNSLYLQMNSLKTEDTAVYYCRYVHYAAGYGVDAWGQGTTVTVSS VL: DIVMTQSPLSLPVTPGEPASISCRSSQPPVHSNRNTYLHWYQQKPGQAPRLLIYKVSNRFSGVPDRFSGSGSGTDFTLKISRVEAEDVGVYYCAQGTQVPYTFGQGTKLEIK : 7.40
2) TR01H108-E22Hh/none-Hi-Kn010G3/L0011-k0 (antibody, V domains shown, one-arm) VH: QVQLVESGGGLVQPGRSLRLSCAASGFTFSNAWMHWVRQAPGKGLEWVAQIKDKSQNYATYTAESVKGRFTISRDDSKNSLYLQMNSLKTEDTAVYYCRYVHYAAGYGVDAWGQGTTVTVSS VL: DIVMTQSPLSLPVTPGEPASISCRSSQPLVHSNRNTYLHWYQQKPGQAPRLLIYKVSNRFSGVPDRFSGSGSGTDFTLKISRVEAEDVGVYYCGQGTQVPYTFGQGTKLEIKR : 7.16
3) TR01H082-E22Hh/none-Hi-Kn010G3/L0260-k0 (antibody, V domains shown, one-arm) VH: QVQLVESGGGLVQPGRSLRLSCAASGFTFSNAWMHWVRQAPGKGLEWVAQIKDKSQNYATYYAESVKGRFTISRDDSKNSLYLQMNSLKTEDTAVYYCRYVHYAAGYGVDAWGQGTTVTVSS VL: DIVMTQSPLSLPVTPGEPASISCRPSQSPVHSNRNTYLHWYQQKPGQAPRLLIYKVSNRFSGVPDRFSGSGSGTDFTLKISRVEAEDVGVYYCTQGTQVPYTFGQGTKLEIK : 7.34
4) TR01H067-E22Hh/none-Hi-Kn010G3/TR01L018-k0 (antibody, V domains shown, one-arm) VH: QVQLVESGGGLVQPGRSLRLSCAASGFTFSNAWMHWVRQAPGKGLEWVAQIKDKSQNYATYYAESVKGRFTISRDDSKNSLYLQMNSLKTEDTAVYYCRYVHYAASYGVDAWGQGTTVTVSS VL: DIVMTQSPLSLPVTPGEPASISCQASESPVHSNRNTYLHWYLQKPGQSPQLLIYKVSNRFSGVPDRFSGSGSGTDFTLKISRVEAEDVGVYYCGQGTQVPYTFGQGTKLEIK : 7.28
5) TR01H040-E22Hh/none-Hi-Kn010G3/L0226-k0 (antibody, V domains shown, one-arm) VH: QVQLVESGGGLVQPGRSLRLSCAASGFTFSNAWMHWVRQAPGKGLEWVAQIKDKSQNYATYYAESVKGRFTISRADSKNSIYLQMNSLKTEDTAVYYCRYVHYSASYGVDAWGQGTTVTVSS VL: DIVMTQSPLSLPVTPGEPASISCRSSQSPVHSNRNTYIHWYQQKPGQAPRLLIYKVSNRFSGVPDRFSGSGSGTDFTLKISRVEAEDVGVYYCIQGTQVPYTFGQGTKLEIK : 7.10
